Target under test: α-Glucosidase (derived from Saccharomyces cerevisiae; EC3.2.1.20) (Saccharomyces cerevisiae)
Assay text: In vitro α-glucosidase inhibitory study
Measured quantity: IC50 (µM)

Examples from the recorded data:
O=C(NN=CC(O)C(O)C(O)C(O)CO)c1cc(-c2ccc(Br)cc2)[nH]n1 (centres unmarked); 35.2
O=C(NN=CC(O)C(O)C(O)C(O)CO)c1cc(-c2ccc(F)cc2)[nH]n1 (centres unmarked); 60.6
Cc1cccc(-c2cc(C(=O)NN=CC(O)C(O)C(O)C(O)CO)n[nH]2)c1 (centres unmarked); 12.1

I = COc1cccc(-c2cc(C(=O)NN=CC(O)C(O)C(O)C(O)CO)n[nH]2)c1 (centres unmarked)
II = Cc1ccc(-c2cc(C(=O)NN=CC(O)C(O)C(O)C(O)CO)n[nH]2)cc1 (centres unmarked)
**Q:** Lab note: check whether I or II has the lower measured IC50. // caller expects the label of the chosen entry
**A:** I

---

Target under test: α-glucosidase (Saccharomyces cerevisiae, UniProt P53341)
Sequence (P53341 whole entry): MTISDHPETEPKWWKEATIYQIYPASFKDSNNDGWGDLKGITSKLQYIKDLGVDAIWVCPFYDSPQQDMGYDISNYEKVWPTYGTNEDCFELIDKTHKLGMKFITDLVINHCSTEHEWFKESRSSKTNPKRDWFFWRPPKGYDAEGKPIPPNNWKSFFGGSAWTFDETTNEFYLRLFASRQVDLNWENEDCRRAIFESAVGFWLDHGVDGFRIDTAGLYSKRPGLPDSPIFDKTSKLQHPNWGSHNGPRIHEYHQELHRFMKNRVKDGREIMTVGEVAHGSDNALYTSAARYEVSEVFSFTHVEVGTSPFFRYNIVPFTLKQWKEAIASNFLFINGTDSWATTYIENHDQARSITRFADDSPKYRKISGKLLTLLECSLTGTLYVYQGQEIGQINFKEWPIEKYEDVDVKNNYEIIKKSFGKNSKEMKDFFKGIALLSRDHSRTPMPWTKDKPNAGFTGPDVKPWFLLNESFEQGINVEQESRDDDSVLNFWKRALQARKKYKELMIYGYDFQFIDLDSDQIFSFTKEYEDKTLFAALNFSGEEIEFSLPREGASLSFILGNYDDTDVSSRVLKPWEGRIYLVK
Measured quantity: Ki (nM)
Quick note: give the figure in nM, leave out the unit.

Record summary for O=C(NN=CC(O)C(O)C(O)C(O)CO)c1cc(-c2ccc(Cl)cc2Cl)[nH]n1 (stereo not shown) : reported Ki = 460

---

Target under test: α-Glucosidase (derived from Saccharomyces cerevisiae; EC3.2.1.20) (Saccharomyces cerevisiae, UniProt P53341)
Sequence (P53341 whole entry): as above
Assay text: In vitro α-glucosidase inhibitory study
pIC50: −log10 of the molar value.
Measured quantity: pIC50

Solved entries (count: 6):
O=C(NN=CC(O)C(O)C(O)C(O)CO)c1cc(-c2ccc([N+](=O)[O-])cc2)[nH]n1 (centres unmarked) [Compound 8h]; 4.09
O=C(NN=CC(O)C(O)C(O)C(O)CO)c1cc(-c2ccc(Cl)cc2Cl)[nH]n1 (centres unmarked) [Compound 8g]; 6.30
O=C(NN=CC(O)C(O)C(O)C(O)CO)c1cc(-c2ccc(Cl)cc2)[nH]n1 (centres unmarked) [Compound 8e]; 6.00
O=C(NN=CC(O)C(O)C(O)C(O)CO)c1cc(-c2ccccc2F)[nH]n1 (centres unmarked) [Compound 8b]; 4.27
O=C(NN=CC(O)C(O)C(O)C(O)CO)c1cc(-c2ccccc2Cl)[nH]n1 (centres unmarked) [Compound 8c]; 5.38
COc1ccc(-c2cc(C(=O)NN=CC(O)C(O)C(O)C(O)CO)n[nH]2)cc1OC (centres unmarked) [Compound 8m]; 3.36

1 = COc1ccc(-c2cc(C(=O)NN=CC(O)C(O)C(O)C(O)CO)n[nH]2)cc1 (centres unmarked) [Compound 8l]
2 = O=C(NN=CC(O)C(O)C(O)C(O)CO)c1cc(-c2ccccc2)[nH]n1 (centres unmarked) [Compound 8a]
**Q:** Form field 'greater pIC50' accepts 1 or 2 ; which applies? Pick one; state its label.
**A:** 2
